Sourced from patent US20260262643A1

system: oat, wild; test: Test C postemergence; format: in vivo, Avena fatua; conditions: Postemergence, 125 g ai/ha; 0 to 100 scale (0 no effect, 100 complete control), 10 days
attribute.measured: Plant response rating, Oat, Wild
Give the figure by itself; no unit, no explanation.

In the examples that follow, each entry is paired with its recorded Plant response rating, Oat, Wild.
COC[C@H]1CN(C(=O)c2cc(-n3cnc(C(C)(C)C)n3)cc3c2OCCO3)c2cccc(Cl)c2O1	0
CCc1ncn(-c2cccc(C(=O)N3CC(C(F)(F)F)Oc4c(C)cccc43)c2)n1 (stereo not drawn)	60
CCc1cc(C(=O)N2C[C@H](C)Oc3c(Cl)cccc32)cc(-n2cncn2)c1	10
CCOC[C@H]1CN(C(=O)c2cc(-n3cnc(C(C)(C)C)n3)cc3c2OCO3)c2cccc(Cl)c2O1	0

Look up and report Plant response rating, Oat, Wild, with oat, wild as system, for Cc1cccc2c1O[C@@H](C)CN2C(=O)c1cccc(-n2cnc(N)n2)c1
0

Look up and report Plant response rating, Oat, Wild, with oat, wild as system, for CNc1ncn(-c2cccc(C(=O)N3C[C@H](C)Oc4c(C)cccc43)c2)n1
10

Look up and report Plant response rating, Oat, Wild, with oat, wild as system, for COc1ccc(-n2cnc(C3CCC3)n2)cc1C(=O)N1C[C@H](C)Oc2c(Cl)cccc21
20

Look up and report Plant response rating, Oat, Wild, with oat, wild as system, for Cc1cccc2c1OC(C(F)(F)F)CN2C(=O)c1cccc(-n2cnc(C(C)C)n2)c1 (single isomer, unassigned) [Compound 303]
50

Look up and report Plant response rating, Oat, Wild, with oat, wild as system, for COC[C@H]1CN(C(=O)c2cc(-n3cnc(C(C)(C)O)n3)ccc2OC)c2cccc(Cl)c2O1
30

Look up and report Plant response rating, Oat, Wild, with oat, wild as system, for CC(C)c1ncn(-c2ccc(OS(C)(=O)=O)c(C(=O)N3C[C@H](C)Oc4c(Cl)cccc43)c2)n1
20

Look up and report Plant response rating, Oat, Wild, with oat, wild as system, for CCc1ncn(-c2cccc(C(=O)N3CC(C(F)(F)F)Oc4c(Cl)cccc43)c2)n1 (stereo not drawn)
20

---

test system: ryegrass, Italian; assay: Test A preemergence; assay type: in vivo, Lolium multiflorum; conditions: 500 g ai/ha, visual injury after 10 days, 0 to 100 scale, 0 is no effect, 100 is complete control
Excerpt: […]
Catalogue of Plant response rating, Ryegrass, Italian readings, one per entry.

C=CCOc1ccc(-n2cnc(C(C)C)n2)cc1C(=O)N1C[C@H](C)Oc2c(Cl)cccc21	100
Cc1ccc(-n2cnc(CO)n2)cc1C(=O)N1C[C@H](C)Oc2c(Cl)cccc21	100
CC(C)c1ncn(-c2ccc(OC(F)(F)F)c(C(=O)N3C[C@H](C)Oc4c(Cl)cccc43)c2)n1	100

Look up and report measured Plant response rating, Ryegrass, Italian for this entry: Cc1cccc2c1OC(C(F)(F)F)CN2C(=O)c1ccnc(-n2cncn2)c1 (centres unmarked)
100

Look up and report measured Plant response rating, Ryegrass, Italian for this entry: COc1cc(C(=O)N2C[C@H](C)Oc3c(Cl)cccc32)cc(-n2cncn2)c1
100

Look up and report measured Plant response rating, Ryegrass, Italian for this entry: Cc1ccc(-n2cnc(C(C)(C)O)n2)cc1C(=O)N1C[C@H](C)Oc2c(Cl)cccc21
100

Look up and report measured Plant response rating, Ryegrass, Italian for this entry: C[C@H]1CN(C(=O)c2cc(I)cc(-n3cncn3)c2)c2cccc(Cl)c2O1
80

Look up and report measured Plant response rating, Ryegrass, Italian for this entry: Cc1cccc2c1O[C@@H](C)CN2C(=O)c1cccc(-n2cnn(C(C)C)c2=O)c1
100

Look up and report measured Plant response rating, Ryegrass, Italian for this entry: CC(C)c1ncn(-c2cc(C(=O)N3C[C@H](C)Oc4c(Cl)cccc43)c3ccccc3c2)n1
70

Look up and report measured Plant response rating, Ryegrass, Italian for this entry: CC(C)c1ncn(-c2ccc(C#N)c(C(=O)N3C[C@H](C)Oc4c(Cl)cccc43)c2)n1
70

Look up and report measured Plant response rating, Ryegrass, Italian for this entry: Cc1nc(C)n(-c2cccc(C(=O)N3C[C@H](C)Oc4c(Cl)cccc43)c2)n1
50

---

tested on: blackgrass; assay: Test A preemergence; assay type: in vivo, Alopecurus myosuroides; details: 500 g ai/ha, 0 to 100 scale (0 no effect, 100 complete control), 10 days
attribute.measured: Plant response rating, Blackgrass
Give the figure by itself; no unit, no explanation.

In the examples that follow, each entry is paired with its recorded Plant response rating, Blackgrass.
Cc1cccc2c1O[C@@H](C)CN2C(=O)c1cccc(-n2cnc(C3CCCCC3)n2)c1	0
CC(C)c1ncn(-c2ccc(O)c(C(=O)N3C[C@H](C)Oc4c(Cl)cccc43)c2)n1	20
CCCc1ncn(-c2cccc(C(=O)N3C[C@H](C)Oc4c(C)cccc43)c2)n1	70
C[C@H]1CN(C(=O)c2cccc(-n3cnc(Br)n3)c2)c2cccc(Cl)c2O1	30
C[C@H]1CN(C(=O)c2cccc(-n3cncn3)c2)c2cccc(C(F)(F)F)c2O1	90
Cc1ccc(-n2cnc(C3CC3)n2)cc1C(=O)N1C[C@H](C)Oc2c(Cl)cccc21	90

Look up and report measured Plant response rating, Blackgrass for this entry: Cc1ccc(C(=O)N2CC(C)Oc3c(Cl)cccc32)cc1-n1cncn1 (centres unmarked)
70

Look up and report measured Plant response rating, Blackgrass for this entry: CCc1cccc2c1OC(C)CN2C(=O)c1cccc(-n2cncn2)c1 (centres unmarked)
40

---

test system: corn; experiment: Test C preemergence; assay type: in vivo, Zea mays; details: Test C, preemergence, 125 g ai/ha; 0 to 100 scale (0 no effect, 100 complete control)
Use 20 as the dividing line for Corn plant response rating, with the line itself on the Criterion met side and lower values as Criterion not met.

Take a look at these entries with their results.
Cc1cccc2c1O[C@@H](C)CN2C(=O)c1cccc(-n2cnc(-c3ccccc3)n2)c1	Criterion not met
Cc1ccc(-n2cnc(C3(O)CCCC3)n2)cc1C(=O)N1C[C@H](C)Oc2c(Cl)cccc21	Criterion not met
CCc1ncn(-c2ccc(OC)c(C(=O)N3C[C@H](C)Oc4c(C)cccc43)c2)n1	Criterion met
Cc1ccc(-n2cnc(C(C)(C)O)n2)cc1C(=O)N1C[C@H](C)Oc2c(C)cccc21	Criterion met
CC(C)c1ncn(-c2ccc(S(=O)(=O)C(F)(F)F)c(C(=O)N3C[C@H](C)Oc4c(Cl)cccc43)c2)n1	Criterion not met

Tell me whether Corn plant response rating is at least 20 here: Cc1ccc(-n2cnc(C3(C(F)(F)F)CC3)n2)cc1C(=O)N1C[C@H](C)Oc2c(Cl)cccc21
Criterion not met

Tell me whether Corn plant response rating is at least 20 here: COC(=O)c1ncn(-c2ccc(C)c(C(=O)N3C[C@H](C)Oc4c(Cl)cccc43)c2)n1
Criterion not met

Tell me whether Corn plant response rating is at least 20 here: COc1ccc(-n2cnc(C(C)(C)O)n2)cc1C(=O)N1C[C@H](C)Oc2c(Cl)cccc21
Criterion met

Tell me whether Corn plant response rating is at least 20 here: CC(C)Oc1ncn(-c2cccc(C(=O)N3C[C@H](C)Oc4c(Cl)cccc43)c2)n1
Criterion not met

Tell me whether Corn plant response rating is at least 20 here: Cc1cccc2c1O[C@@H](C)CN2C(=O)c1cccc(-n2cnc(C#C[Si](C)(C)C)n2)c1
Criterion not met

Tell me whether Corn plant response rating is at least 20 here: COc1ccc(-n2cnc(C(C)C)n2)cc1C(=O)N1C[C@H](C)Oc2c1cccc2C(F)(F)F
Criterion met

Tell me whether Corn plant response rating is at least 20 here: COc1cc(C(=O)N2C[C@H](C)Oc3c(Cl)cccc32)cc(-n2cnc(C)n2)c1
Criterion met

Tell me whether Corn plant response rating is at least 20 here: CC(C)c1ncn(-c2cc3c(c(C(=O)N4C[C@H](C)Oc5c(Cl)cccc54)c2)OCCCO3)n1
Criterion not met

---

Catalogue of Plant response rating, Corn readings, one per entry.
system: corn; experiment: Test C postemergence; assay type: in vivo, Zea mays; conditions: Postemergence, 1000 g ai/ha; 0 to 100 scale, 0 no effect, 100 complete control
Give the figure by itself; no unit, no explanation.

In the examples that follow, each entry is paired with its recorded Plant response rating, Corn.
C[C@H]1CN(C(=O)c2cccc(-n3ccnn3)c2)c2cccc(Cl)c2O1	10
CC1CN(C(=O)c2ccnc(-n3ccnc3)c2)c2cccc(Cl)c2O1 (stereo not shown)	0
CC1CN(C(=O)c2ccnc(-c3ccccn3)c2)c2cccc(Cl)c2O1 (stereo not shown)	0

Turning now to a further record.
Look up and report Plant response rating, Corn, with corn as system, for C[C@H]1CN(C(=O)c2cccc(-c3cccnc3)c2)c2cccc(Cl)c2O1
20

---

system: oat, wild; test: Test A postemergence; format: in vivo, Avena fatua; settings: 125 g ai/ha, postemergence, 10 days; 0 to 100 scale, 0 no effect, 100 complete control
Catalogue of Oat, Wild plant response rating readings, one per entry.
Give the figure by itself; no unit, no explanation.

In the examples that follow, each entry is paired with its recorded Oat, Wild plant response rating.
CC(C)c1ncn(-c2ccc(O)c(C(=O)N3C[C@H](C)Oc4c(Cl)cccc43)c2)n1	70
CC(C)c1ncn(-c2cc(C(=O)N3C[C@H](C)Oc4c(Cl)cccc43)c3ccccc3c2)n1	0
C[C@H]1CN(C(=O)c2cc(C3CC3)cc(-n3cncn3)c2)c2cccc(Cl)c2O1	10
COc1cc(C(=O)N2C[C@H](C)Oc3c(Cl)cccc32)cc(-n2cncn2)c1	50
C#CCOc1ccc(-n2cnc(C(C)C)n2)cc1C(=O)N1C[C@H](C)Oc2c(Cl)cccc21	30
CCc1ncn(-c2ccc(C)c(C(=O)N3C[C@H](C)Oc4c(C)cccc43)c2)n1	80
Cc1ccc(-n2cnc(CO)n2)cc1C(=O)N1C[C@H](C)Oc2c(Cl)cccc21	20
Cc1cccc2c1O[C@@H](C)CN2C(=O)c1cccc(-n2cnc(C3CCCCC3)n2)c1	0
Cc1cccc2c1O[C@@H](C)CN2C(=O)c1cccc(-n2cnc(COC(C)C)n2)c1	0
COc1ccc(-n2cnc(C)n2)cc1C(=O)N1C[C@H](C)Oc2c(Cl)cccc21	80

Look up and report Oat, Wild plant response rating, with oat, wild as system, for COCCc1ncn(-c2cccc(C(=O)N3C[C@H](C)Oc4c(C)cccc43)c2)n1
70

Look up and report Oat, Wild plant response rating, with oat, wild as system, for C[C@H]1CN(C(=O)c2cccc(-n3cnc(Br)n3)c2)c2cccc(Cl)c2O1
20

Look up and report Oat, Wild plant response rating, with oat, wild as system, for CCCCc1ncn(-c2cccc(C(=O)N3C[C@H](C)Oc4c(C)cccc43)c2)n1
0

Look up and report Oat, Wild plant response rating, with oat, wild as system, for CC(C)Cc1ncn(-c2cccc(C(=O)N3C[C@H](C)Oc4c(Cl)cccc43)c2)n1
10

Look up and report Oat, Wild plant response rating, with oat, wild as system, for CCc1ccc(-n2cnc(C3CC3)n2)cc1C(=O)N1C[C@H](C)Oc2c(Cl)cccc21
30

Look up and report Oat, Wild plant response rating, with oat, wild as system, for Cc1ccc(-n2cnc(C3CCC3)n2)cc1C(=O)N1C[C@H](C)Oc2c(C)cccc21
30

Look up and report Oat, Wild plant response rating, with oat, wild as system, for C[C@H]1CN(C(=O)c2cccc(-n3cnc(C(C)(C)C)n3)c2)c2cccc(Cl)c2O1
50
